test system: rodent lifetime carcinogenesis bioassay, tumor incidence TD50; assay: carcinogenic potency in animals, long-term in vivo studies, CPDB compilation (AID 1745844); conditions: rat; strain Harlan; males; in feed; site: liver; lesion: several types; types named in the paper; dosed 72 weeks; study length 94 weeks
metric: TD50
Report the figure along with its unit, number first.

Request - read-out TD50 | tested on rodent lifetime carcinogenesis bioassay, tumor incidence TD50 | molecule C#CC(OC(N)=O)(c1ccccc1)c1ccc(Cl)cc1 (stereo unspecified) 58.5 mg/kg/day

---

system: rodent lifetime carcinogenesis bioassay, tumor incidence TD50; experiment: carcinogenic potency in animals, long-term in vivo studies, CPDB compilation (AID 1745844); conditions: mouse; strain RF; males; in drinking water; site: thymus gland; lesion: lymphoma; dosed 104 weeks; study length 104 weeks
metric: TD50

Request - read-out TD50 | tested on rodent lifetime carcinogenesis bioassay, tumor incidence TD50 | compound COS(C)(=O)=O 185 mg/kg/day

---

system: rodent lifetime carcinogenesis bioassay, tumor incidence TD50; experiment: carcinogenic potency in animals, long-term in vivo studies, CPDB compilation (AID 1745844); conditions: rat; strain Fischer 344; males; in feed; site: adrenal gland; lesion: pheochromocytoma + pheochromocytoma, malignant; dosed 103 weeks; study length 104 weeks
metric: TD50

Need TD50, item COC(=O)[C@H]1[C@H]2C[C@@H]3c4[nH]c5cc(OC)ccc5c4CCN3C[C@H]2C[C@@H](OC(=O)c2cc(OC)c(OC)c(OC)c2)[C@@H]1OC 0.306 mg/kg/day

---

system: rodent lifetime carcinogenesis bioassay, tumor incidence TD50; test: carcinogenic potency in animals, long-term in vivo studies, CPDB compilation (AID 1745844); details: mouse; strain B6C3F1; males; inhaled; site: lung; lesion: adenocarcinoma; dosed 78 weeks; study length 78 weeks
Calls of active or inactive are those of the source. The rule behind the calls is not given here.
metric: TD50

Need TD50, item O=CCCCC=O 1.14 mg/kg/day (inactive)

---

tested on: rodent lifetime carcinogenesis bioassay, tumor incidence TD50; assay: carcinogenic potency in animals, long-term in vivo studies, CPDB compilation (AID 1745844); conditions: rat; strain Fischer 344; females; in feed; site: large intestine; lesion: adenomatous polyp; dosed 27 weeks; study length 104 weeks
metric: TD50

Need TD50, item COc1ccccc1[N+](=O)[O-] 55 mg/kg/day

---

tested on: rodent lifetime carcinogenesis bioassay, tumor incidence TD50; experiment: carcinogenic potency in animals, long-term in vivo studies, CPDB compilation (AID 1745844); details: mouse; strain Ha/ICR; females; by gavage; site: forestomach; lesion: one or several types; types not named; dosed 89 weeks; study length 89 weeks
metric: TD50

molecule=CC=CCl result="5.05 mg/kg/day"

Now consider the entry below.
Need TD50, item CC(Cl)C=O (configuration not stated) 12.9 mg/kg/day

---

Would you mind telling me the reported TD50 of each entry?
tested on: rodent lifetime carcinogenesis bioassay, tumor incidence TD50; test: carcinogenic potency in animals, long-term in vivo studies, CPDB compilation (AID 1745844); details: rat; strain Sprague-Dawley; females; by gavage; site: any site (literature study); lesion: malignant tumor; dosed 104 weeks; study length 123 weeks

smiles_notation=CCc1ccccc1 target_under_test="rodent lifetime carcinogenesis bioassay, tumor incidence TD50" metric=TD50 result="1610 mg/kg/day"
smiles_notation=Cc1cccc(C)c1 target_under_test="rodent lifetime carcinogenesis bioassay, tumor incidence TD50" metric=TD50 result="1870 mg/kg/day"

Now consider the entry below.
Need TD50, item Cc1ccc(C)c(C)c1 14300 mg/kg/day
